Can you tell me phenotypically active for the items I'm about to list?
Tested on: WPMY1-TP53BP1-CLTA
Method: phenotypically active (imaging signature differs from DMSO and reproducible) at any of 0.3-9 uM (binary (1 = active, 0 = inactive)); higher = active
Condition context: treatment time: 24 h

Record summary for `C#CCN(C)[C@H](C)Cc1ccccc1` : reported phenotypically active = 0 (inactive)

Record summary for `Cc1sc2c(c1C)C(c1ccc(Cl)cc1)=N[C@H](CC(=O)OC(C)(C)C)c1nnc(C)n1-2` : reported phenotypically active = 0 (inactive)

Record summary for `C/C=C1\C[C@@H](C)[C@](O)(CO)C(=O)OCC2=CCN3CC[C@@H](OC1=O)[C@@H]23` : reported phenotypically active = 0 (inactive)

Record summary for `COc1ccc(C(=O)Cc2c(CCN(C)C)cc3c(c2OC)OCO3)c(C(=O)O)c1OC` : reported phenotypically active = 0 (inactive)

Record summary for `Cc1c(C(=O)Nc2cccc(C(F)(F)F)c2)cc(-c2ccccc2)n1CCCN1CCOCC1` : reported phenotypically active = 0 (inactive)

Record summary for `CC(C)(O)[C@H]1O[C@H]2CC[C@@]3(C)[C@@](O)(CC[C@H]4Cc5c([nH]c6ccccc56)[C@@]43C)C2=CC1=O` : reported phenotypically active = 1 (active)

---

Can you tell me phenotypically active for the items I'm about to list?
Tested on: HepG2-ACTB-RAB5A
Method: phenotypically active (imaging signature differs from DMSO and reproducible) at any of 0.3-9 uM (binary (1 = active, 0 = inactive)); higher = active
Condition context: treatment time: 24 h
Where a name gives a salt, the structure may show the parent alone.
Could you keep your reply to the number by itself?

Record summary for CCCCCCCCCC(=O)O[C@H]1CC[C@H]2[C@@H]3CCC4=CC(=O)CC[C@@H]4[C@H]3CC[C@]12C [nandrolone-decanoate] : reported phenotypically active = 0

Record summary for `O=C1C=C2C=C[C@@H]3C[C@@]2(O1)[C@H]1CCCCN31` : reported phenotypically active = 0

Record summary for `C[C@]12CC[C@H]3[C@@H](CCC4=CC(=O)CC[C@@]43C)[C@@H]1CC[C@@H]2O` : reported phenotypically active = 0

Record summary for CCCN1C[C@H](CSC)C[C@@H]2c3cccc4[nH]cc(c34)C[C@H]21 [pergolide] : reported phenotypically active = 0

Record summary for `C[C@H]1C(=O)O[C@@H]2CCN3CC=C(COC(=O)[C@](C)(O)[C@]1(C)O)[C@H]23` : reported phenotypically active = 0

Record summary for `Clc1ccc2c(c1)C(c1ccccc1)=NCc1nncn1-2` : reported phenotypically active = 0

Record summary for `O=C1CCC[C@@H]2[C@H]3CCCN4CCC[C@@H](CN12)[C@@H]34` : reported phenotypically active = 0

Record summary for COc1ccc2c3c1O[C@H]1C(=O)CC[C@H]4[C@@H](C2)N(C)CC[C@]314 [hydrocodone] : reported phenotypically active = 0

Record summary for COc1ccc2c(c1O)-c1c(OC)c(OC)cc3c1[C@H](C2)N(C)CC3 [Isocorydine (+)] : reported phenotypically active = 0

Record summary for CC1=CC(=O)C2=C(C)C[C@H](O)[C@@H]3[C@H](OC(=O)[C@H]3C)[C@@H]12 [Austricine hydrate] : reported phenotypically active = 0

Record summary for `C[C@H]1O[C@@H](O[C@H]2[C@@H](O)C[C@H](O[C@H]3[C@@H](O)C[C@H](O[C@H]4CC[C@@]5(C)[C@H](CC[C@@H]6[C@@H]5CC[C@]5(C)[C@@H](C7=CC(=O)OC7)[C@@H](O)C[C@]65O)C4)O[C@@H]3C)O[C@@H]2C)C[C@H](O)[C@@H]1O` : reported phenotypically active = 1

Record summary for `C[C@]12Cc3cn[nH]c3C[C@@H]1CC[C@@H]1[C@@H]2CC[C@@]2(C)[C@H]1CC[C@]2(C)O` : reported phenotypically active = 0

Record summary for `COc1cc2c(c(OC)c1OC)-c1ccc(O)c(=O)cc1[C@@H](N)CC2` : reported phenotypically active = 0

Record summary for `CC(C)(C)c1cc(C=C(C#N)C#N)cc(C(C)(C)C)c1O` : reported phenotypically active = 1

Record summary for `N#CC(C#N)=Cc1ccc(O)c(O)c1` : reported phenotypically active = 0

Record summary for `CN1CCc2cc3c(cc2[C@H]1[C@@H]1OC(=O)c2c1ccc1c2OCO1)OCO3` : reported phenotypically active = 0

Record summary for `C[C@]12COC(=O)C[C@@H]1CC[C@@H]1[C@@H]2CC[C@@]2(C)[C@H]1CC[C@]2(C)O` : reported phenotypically active = 0

Record summary for C[N+]1([O-])[C@@H]2C[C@@H](OC(=O)[C@H](CO)c3ccccc3)C[C@H]1[C@@H]1O[C@@H]12 (stereo not given in full) : reported phenotypically active = 0

Record summary for `CN1[C@@H]2CC[C@H]1C[C@@H](OC(=O)[C@H](CO)c1ccccc1)C2` : reported phenotypically active = 0

Record summary for `CCC1(CC)C(=O)NC(=O)N(C)C1=O` : reported phenotypically active = 0

Record summary for `CCC(=O)O[C@](Cc1ccccc1)(c1ccccc1)[C@H](C)CN(C)C` : reported phenotypically active = 0

Record summary for CN1[C@@H]2CC(=O)C[C@H]1[C@H](O)C2 [6-Hydroxytropinone] : reported phenotypically active = 0

Record summary for `CC(C)(N)Cc1ccccc1` : reported phenotypically active = 1

Record summary for C[C@@H]1NCCc2cc(O)c(O)cc21 [Salsolinol hydrobromide] : reported phenotypically active = 0

Record summary for `C[C@]12CC[C@H]3[C@@H](CC[C@]4(O)C[C@@H](O)CC[C@]34C=O)[C@@]1(O)CC[C@@H]2C1=CC(=O)OC1` : reported phenotypically active = 1

Record summary for `C[C@]12CC[C@H](O)C[C@H]1CC[C@@H]1[C@@H]2C[C@@H](O)[C@]2(C)[C@@H](C3=CC(=O)OC3)CC[C@]12O` : reported phenotypically active = 1

Record summary for `Cc1sc2c(c1C)C(c1ccc(Cl)cc1)=N[C@@H](CC(=O)OC(C)(C)C)c1nnc(C)n1-2` : reported phenotypically active = 1

Record summary for `C=C1[C@@H](C)[C@H]2[C@H](Cc3ccccc3)NC(=O)[C@]23OC(=O)C=C[C@H](O)CCC[C@@H](C)CC=C[C@H]3[C@@H]1O` : reported phenotypically active = 1

Record summary for CC[C@@H](C(=O)[C@@H](C)[C@@H](O)[C@H](C)[C@@H]1O[C@@H]([C@@H](CC)C(=O)O)CC[C@@H]1C)[C@H]1O[C@]2(C=C[C@@H](O)[C@]3(CC[C@@](C)([C@H]4CC[C@](O)(CC)[C@H](C)O4)O3)O2)[C@H](C)C[C@@H]1C [Salinomycin Sodium] : reported phenotypically active = 1

Record summary for `COc1cc2c(cc1OC)[C@@]13CCN4CC5=CCO[C@H]6CC(=O)N2[C@H]1[C@H]6[C@H]5C[C@H]43` : reported phenotypically active = 0

Sourced from the supplement of paper PMC7411054
